testMethodNotes: Steady state volume of distribution was determined
Format: ADME, organism-based
conditionNotes: rat, in vivo; read-out: Vdss
propertyLabel: Vd

**Q:** Can you look up the measured Vd of Nc1cnc(-c2cccc(Cl)c2)n(CC(=O)NC(Cc2ccccc2)C(=O)C(F)(F)C(=O)NCc2ccccc2)c1=O (stereo unspecified) for me?
**A:** 0.369 L/kg

###

testMethodNotes: Maximum plasma concentration after oral administration to dogs at a dose of 10 mg/kg
Type: ADME, organism-based, Canis lupus familiaris
Set-up: dose 10 mg/kg, route oral
conditionNotes: dog
propertyLabel: Cmax (ng/mL)
Kindly answer with a numeric value in ng/mL, unit omitted.

**Q:** Entry Nc1cnc(-c2cccc(Cl)c2)n(CC(=O)NC(Cc2ccccc2)C(=O)C(F)(F)C(=O)NCc2ccccc2)c1=O (stereo unspecified) has what Cmax?
**A:** 7320

###

testMethodNotes: Bioavailability administered orally at a dose of 10 mg/kg to rats
Format: ADME, organism-based
conditionNotes: rat, in vivo, po, read-out: BA
propertyLabel: bioavailability (%)
Please state the figure in %; there is no need to write the unit.

**Q:** Tell me the measured bioavailability of Nc1cnc(-c2cccc(Cl)c2)n(CC(=O)NC(Cc2ccccc2)C(=O)C(F)(F)C(=O)NCc2ccccc2)c1=O (stereo unspecified) , please.
**A:** 17

###

testMethodNotes: Pharmacokinetic parameter AUC after oral administration to dogs
Format: ADME, organism-based, Canis lupus familiaris
conditionNotes: dog, in vivo
propertyLabel: AUC (ng·h/mL)
The reply should contain only the number, in ng·h/mL.

**Q:** // AUC lookup, key: Nc1cnc(-c2cccc(Cl)c2)n(CC(=O)NC(Cc2ccccc2)C(=O)C(F)(F)C(=O)NCc2ccccc2)c1=O (stereo unspecified)
**A:** 18500

###

testMethodNotes: Pharmacokinetic parameter AUC after oral administration to rats
Type: ADME, organism-based
conditionNotes: rat, in vivo
propertyLabel: AUC (ng·h/mL)
Express it in ng·h/mL; write the number only.

**Q:** Given the compound Nc1cnc(-c2cccc(Cl)c2)n(CC(=O)NC(Cc2ccccc2)C(=O)C(F)(F)C(=O)NCc2ccccc2)c1=O (stereo unspecified) , what is its reported AUC?
**A:** 12100

###

testMethodNotes: Time to reach Cmax after oral administration to dogs
Format: ADME, organism-based, Canis lupus familiaris
conditionNotes: dog, in vivo
propertyLabel: Tmax

**Q:** What value of Tmax has been recorded for this entry: Nc1cnc(-c2cccc(Cl)c2)n(CC(=O)NC(Cc2ccccc2)C(=O)C(F)(F)C(=O)NCc2ccccc2)c1=O (stereo unspecified)
**A:** 42 min

###

testMethodNotes: Pharmacokinetic parameter AUC after intravenous administration to dogs
Assay type: ADME, organism-based, Canis lupus familiaris
conditionNotes: dog, in vivo
propertyLabel: AUC (ng·h/mL)
All answers are understood in ng·h/mL, so give the number only.

**Q:** Need AUC, item Nc1cnc(-c2cccc(Cl)c2)n(CC(=O)NC(Cc2ccccc2)C(=O)C(F)(F)C(=O)NCc2ccccc2)c1=O (stereo unspecified)
**A:** 5720

###

testMethodNotes: Pharmacokinetic parameter AUC after intravenous administration to rats
Type: ADME, organism-based
conditionNotes: rat, in vivo
propertyLabel: AUC (ng·h/mL)
All answers are understood in ng·h/mL, so give the number only.

**Q:** # query: AUC of entry Nc1cnc(-c2cccc(Cl)c2)n(CC(=O)NC(Cc2ccccc2)C(=O)C(F)(F)C(=O)NCc2ccccc2)c1=O (stereo unspecified)
**A:** 7330
